# testedTarget: Alpha-bungarotoxin (Bungarus multicinctus) (UniProt P60615)
# Sequence (P60615 whole entry, looked up): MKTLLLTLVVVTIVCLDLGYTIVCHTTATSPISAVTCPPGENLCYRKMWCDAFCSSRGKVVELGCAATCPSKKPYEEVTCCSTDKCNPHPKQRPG
# protocolText: compounds binding labelled alpha-BTX control protein – biochemical, small-molecule microarray, Alexa647 label, 635/667 nm fluorescence, artefact control for SMM control protein annotation, profiling panel (AID 1117)
# details: alpha-BTX-A647 binding fluorescence, higher = more signal
quantityName: composite z-score

{"molecule": "C[C@@H]1OC=C2[C@@H](O)[C@H]3O[C@H]3C(=O)[C@]23[C@H]1[C@H]1C2=C([C@@H](O)[C@H]4O[C@H]4C2=O)[C@@H]3O[C@@H]1C", "testedTarget": "Alpha-bungarotoxin (Bungarus multicinctus) (UniProt P60615)", "quantityName": "composite z-score", "obsValue": -0.244}
{"molecule": "COC(=O)[C@H]1C(=O)c2ccccc2O[C@@](C(=O)OC)(c2ccccc2)[C@@H]1c1ccccc1", "testedTarget": "Alpha-bungarotoxin (Bungarus multicinctus) (UniProt P60615)", "quantityName": "composite z-score", "obsValue": -0.579}
{"molecule": "CN1CCC(c2ccc(CO)cc2)=CC1C1CC1 (stereo not given)", "testedTarget": "Alpha-bungarotoxin (Bungarus multicinctus) (UniProt P60615)", "quantityName": "composite z-score", "obsValue": 0.0005}
{"molecule": "COC(=O)NCC=Cc1nc(CCC=CC(=O)O[C@H]2CC3CC(=O)O[C@@H](C=CCC(C)C)C[C@@H]4CC[C@H](C)[C@@H](C[C@@H](OC)C[C@H](C2)O3)O4)co1", "testedTarget": "Alpha-bungarotoxin (Bungarus multicinctus) (UniProt P60615)", "quantityName": "composite z-score", "obsValue": -0.684}
{"molecule": "CCCc1cc2c(n1Cc1ccc(C)cc1)C(C)C1CN(C(=O)c3ccccc3)C(C)(C(=O)OC)C21 (stereo not given)", "testedTarget": "Alpha-bungarotoxin (Bungarus multicinctus) (UniProt P60615)", "quantityName": "composite z-score", "obsValue": 1.9}

----------
# System: Fibrinogen (Alexa647-labelled)
# protocolText: Alexa647-fibrinogen binding to printed small molecules – biochemical, small-molecule microarray, 635/667 nm fluorescence, artefact control for SMM control-protein annotation, profiling panel (AID 1131);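 also: z-score merges 667 nm fluorescence with per-spot signal-to-noise over triplicate slides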
# details: fibrinogen-A647 binding fluorescence, higher = more signal
The entries below are paired with their reported composite z-score.

{"molecule": "CCCc1cc2c(n1Cc1cccc(Cl)c1)C(C)C1CN(C(=O)c3ccccc3)C(C)(C(=O)OC)C21 (stereo not given)", "composite z-score": 0.989}
{"molecule": "CCCc1cc2c(n1CCO)C(C)C1CN(C(=O)c3ccccc3)C(C)(C(=O)OC)C21 (stereo not given)", "composite z-score": 0.64}
{"molecule": "c1ccc(-c2cc3c(nc2-c2ccccc2)CCNC3)cc1", "composite z-score": 0.357}
{"molecule": "OCc1ccc(C2=CC(c3cccs3)N(Cc3cccc(OC(F)(F)F)c3)CC2)cc1 (stereo not given)", "composite z-score": -0.365}
{"molecule": "C[C@H]1O[C@H]2C3=C(C(=O)[C@@H]4O[C@@H]4[C@@H]3O)[C@@H]1[C@@H]1[C@@H](C)OC=C3[C@@H](O)[C@H]4O[C@H]4C(=O)[C@]312", "composite z-score": -0.727}
{"molecule": "COC(=O)[C@@]1(Cc2ccccc2)[C@H]2c3cc(C(=O)N(C)C)n(C)c3C[C@H]2CN1C(=O)c1ccccc1", "composite z-score": 0.84}
{"molecule": "CCCC=C(CCC)[C@@H](NP(=O)(c1ccccc1)c1ccccc1)c1ccccc1", "composite z-score": 0.819}
{"molecule": "C[C@@H]1Cc2c(cnc3c2CN(C)CC3)CO1", "composite z-score": -0.383}
{"molecule": "CCc1cc2c(nc1CC)CCN(CCC(C)=NOC)C2", "composite z-score": -0.15}
{"molecule": "CCOC(=O)[C@H]1CC=C2C(=O)Oc3ccccc3[C@@H]21", "composite z-score": -0.192}
{"molecule": "OCc1ccc(C2=CC(C3CC3)N(Cc3sc4ccccc4c3Cl)CC2)cc1 (stereo not given)", "composite z-score": 0.483}
{"molecule": "CN1CCc2nc(CO)c(CO)cc2C1", "composite z-score": 0.291}
{"molecule": "COC(=O)[C@@]1(Cc2ccc(F)cc2)[C@H]2c3cc(C(=O)N(C)C)[nH]c3C[C@H]2CN1C(=O)c1ccccc1", "composite z-score": 0.817}
{"molecule": "CN1CCC(c2ccc(CO)cc2)=CC1c1cccs1 (stereo not given)", "composite z-score": -0.28}
{"molecule": "COC(=O)[C@H]1[C@H](c2ccccc2)C(=O)[C@]2(O)c3ccccc3O[C@@]12c1ccccc1", "composite z-score": 0.826}
{"molecule": "COC(=O)[C@H]1C(=O)c2ccccc2O[C@@](C(=O)OC)(c2ccccc2)[C@@H]1c1ccccc1", "composite z-score": -1.75}
{"molecule": "COC(=O)[C@@]1(Cc2ccccc2)[C@H]2c3cc(C(=O)N(C)C)[nH]c3C[C@H]2CN1C(=O)c1ccccc1", "composite z-score": -0.0736}
{"molecule": "CN1CCC(c2ccc(CO)cc2)=CC1C1CC1 (stereo not given)", "composite z-score": -0.0825}
{"molecule": "COc1cc2c(cc1O)C=[N+](C)CC2", "composite z-score": -1.32}
{"molecule": "CCCc1cc2c(n1Cc1ccc(C)cc1)C(C)C1CN(C(=O)c3ccccc3)C(C)(C(=O)OC)C21 (stereo not given)", "composite z-score": 0.889}
